I'd appreciate it if you could supply Blood values for the items below.
System: LNCaP tumor-transplanted mouse
Assay: Internal radioactivity distribution using LNCaP tumor-transplanted mouse
Format: in vivo
Conditions: 24 h after administration
Just so you know, I need the unit written after the number.

These recorded examples may help you get a feel for the data.
O=C(O)CC[C@H](NC(=O)N[C@@H](CCCCNC(=O)[C@H](Cc1ccc2ccccc2c1)NC(=O)[C@H]1CC[C@H](CNC(=O)CCC(C(=O)O)N2CCN(CC(=O)O)CCN(C(CCC(=O)N[C@@H](CCCCNC(=O)CCCc3ccc(I)cc3)C(=O)O)C(=O)O)CCN(CC(=O)O)CC2)CC1)C(=O)O)C(=O)O (stereo partly drawn) [[^111In]In-PSMA-NAT-DA1, metal not drawn]	10.9 ± 5.55 % ID/g
O=C([O-])CN1CCN(C(CCC(=O)NCCCC[C@H](NC(=O)N[C@@H](CCC(=O)O)C(=O)O)C(=O)O)C(=O)[O-])CCN(CC(=O)[O-])CCN(C(CCC(=O)Nc2ccccc2)C(=O)[O-])CC1.[111In+3] (stereo partly drawn) [[^111In]In-PSMA-DB, reference compound]	0.68 ± 0.17 % ID/g

--- query ---
Prompt line: Write down the reported Blood of O=C([O-])CN1CCN(C(CCC(=O)NCCCC[C@H](NC(=O)N[C@@H](CCC(=O)O)C(=O)O)C(=O)O)C(=O)[O-])CCN(CC(=O)[O-])CCN(C(CCC(=O)N[C@@H](CCCCNC(=O)CCCc2ccc(I)cc2)C(=O)O)C(=O)[O-])CC1.[111In+3] (stereo partly drawn) [[^111In]In-PSMA-DA1] , test system: LNCaP tumor-transplanted mouse.
Response line: 14.0 ± 3.27 % ID/g
